Where these numbers come from: patent US5928933A

- runDescription: Enzyme screens for resolution of diastereomeric mixture CHLP(MEMC)/THLP(MEMC) (Example 13)
- Format: biochemical
- experimentalParameters: 0.050M each isomer; 0.100M potassium phosphate pH 7.0; 5 h; 5.0 to 50 mg/mL enzyme; 25° C.
readout: conv. (percent conversion of the diastereomeric mixture) (%)
Give bare numbers, in %.

Fill in: conv. (percent conversion of the diastereomeric mixture) of protease, type XXVII: commercial enzyme preparation, (Nagarase) (protein, UniProt P00782 108-382, looked up) Subtilisin BPN': AQSVPYGVSQIKAPALHSQGYTGSNVKVAVIDSGIDSSHPDLKVAGGASMVPSETNPFQDNNSHGTHVAGTVAALNNSIGVLGVAPSASLYAVKVLGADGSGQYSWIINGIEWAIANNMDVINMSLGGPSGSAALKAAVDKAVASGVVVVAAAGNEGTSGSSSTVGYPGKYPSVIAVGAVDSSNQRASFSSVGPELDVMAPGVSIQSTLPGNKYGAYNGTSMASPHVAGAAALILSKHPNWTNTQVRSSLENTTTKLGDSFYYGKGLINVQAAAQ is ___
17
